Biological target: T1, Human GDF15 Fc (human, UniProt Q99988 195-308, limits assumed, biotinylated (EZ-Link Sulfo-NHS-Biotinylation Kit) in the SPR assay)
T1 construct: also called human GDF15-Fc fusion; biotinylated Human GDF15 Fc; not shown: Fc part
T1 sequence: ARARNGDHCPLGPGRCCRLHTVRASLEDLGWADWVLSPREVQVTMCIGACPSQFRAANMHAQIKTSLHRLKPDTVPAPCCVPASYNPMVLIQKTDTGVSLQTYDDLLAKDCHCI
Assay: SPR Biacore 8K; biotinylated antigen captured, Fab analyte
MEASURED ENDPOINT: kon (M⁻¹ s⁻¹)

[[record]]
binder = "GDF15 antibody agent Clone K, Fab (Fab, V domains shown, Fab; CH1 and CL of the Fab not specified; also called Fab of Clone K) VH: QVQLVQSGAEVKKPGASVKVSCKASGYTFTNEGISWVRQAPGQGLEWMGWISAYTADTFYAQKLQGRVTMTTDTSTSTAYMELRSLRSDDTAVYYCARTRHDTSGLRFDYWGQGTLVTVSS VL: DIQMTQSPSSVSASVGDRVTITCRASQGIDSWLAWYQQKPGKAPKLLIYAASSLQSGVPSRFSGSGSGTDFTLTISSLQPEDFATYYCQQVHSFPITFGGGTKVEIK"
data_value = "4.87e+06"

[[record]]
binder = "GDF15 antibody agent Clone J, Fab (Fab, V domains shown, Fab; CH1 and CL of the Fab not specified; also called Fab of Clone J) VH: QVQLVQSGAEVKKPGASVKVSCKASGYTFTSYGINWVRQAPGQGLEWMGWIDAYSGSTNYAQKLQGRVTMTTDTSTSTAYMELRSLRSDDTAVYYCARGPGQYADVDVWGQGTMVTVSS VL: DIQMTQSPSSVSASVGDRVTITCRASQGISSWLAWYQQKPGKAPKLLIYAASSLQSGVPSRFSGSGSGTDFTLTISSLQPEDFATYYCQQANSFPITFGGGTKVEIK"
data_value = "4.57e+06"

[[record]]
binder = "GDF15 antibody agent Clone S, Fab (Fab, V domains shown, Fab; CH1 and CL of the Fab not specified; also called Fab of Clone S) VH: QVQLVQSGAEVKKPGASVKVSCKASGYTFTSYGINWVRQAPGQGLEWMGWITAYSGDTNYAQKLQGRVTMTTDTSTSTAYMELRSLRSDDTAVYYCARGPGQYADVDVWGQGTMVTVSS VL: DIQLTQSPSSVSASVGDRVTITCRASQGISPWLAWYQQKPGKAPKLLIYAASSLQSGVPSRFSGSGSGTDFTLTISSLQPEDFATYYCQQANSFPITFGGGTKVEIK"
data_value = "1.34e+06"

[[record]]
binder = "GDF15 antibody agent Clone P, Fab (Fab, V domains shown, Fab; CH1 and CL of the Fab not specified; also called Fab of Clone P) VH: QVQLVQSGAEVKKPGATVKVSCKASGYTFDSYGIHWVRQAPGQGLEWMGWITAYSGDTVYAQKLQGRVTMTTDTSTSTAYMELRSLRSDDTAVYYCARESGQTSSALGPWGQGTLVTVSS VL: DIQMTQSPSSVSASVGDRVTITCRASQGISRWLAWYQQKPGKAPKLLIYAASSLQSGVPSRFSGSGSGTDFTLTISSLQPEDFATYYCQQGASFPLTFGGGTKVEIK"
data_value = "1.66e+07"

[[record]]
binder = "GDF15 antibody agent Clone L, Fab (Fab, V domains shown, Fab; CH1 and CL of the Fab not specified; also called Fab of Clone L) VH: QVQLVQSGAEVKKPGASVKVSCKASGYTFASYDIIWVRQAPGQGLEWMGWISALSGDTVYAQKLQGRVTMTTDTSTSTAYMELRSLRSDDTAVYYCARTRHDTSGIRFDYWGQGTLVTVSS VL: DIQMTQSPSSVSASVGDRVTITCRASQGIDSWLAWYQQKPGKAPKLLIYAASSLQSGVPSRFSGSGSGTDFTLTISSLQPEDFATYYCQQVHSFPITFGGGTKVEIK"
data_value = "3.99e+06"

